Target Or System: vascular endothelial growth factor (VEGF) (UniProt P15692-4 27-191, limits assumed)
Sequence (P15692 other isoform, or with tags, fused parts or gaps limits assumed): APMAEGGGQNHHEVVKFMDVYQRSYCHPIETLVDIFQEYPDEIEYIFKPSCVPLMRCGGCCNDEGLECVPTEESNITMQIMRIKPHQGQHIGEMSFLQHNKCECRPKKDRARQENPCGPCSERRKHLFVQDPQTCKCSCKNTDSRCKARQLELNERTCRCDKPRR
Experiment Notes: cell-based or functional assay
Positions of bridges follow the written chain, without caps; N, C: chain ends. Non-standard residues stand in square brackets, D forms with d.
Property Name: IC50, Flk-1-Y-P

Query: Answer with the recorded IC50, Flk-1-Y-P for the binder listed here: GDDD (designed binder, linker N-C via 3‑aminomethyl‑5‑aminobenzamide; also: four loops on But-Calix calix[4]arene scaffold) [GFB-106]
Reply: < 10 µM

Query: Answer with the recorded IC50, Flk-1-Y-P for the binder listed here: GDSD (designed binder, linker N-C via 3‑aminomethyl‑5‑aminobenzamide; also: four loops on But-Calix calix[4]arene scaffold) [GFB-113]
Reply: < 10 µM

Query: Answer with the recorded IC50, Flk-1-Y-P for the binder listed here: [dA]DGD (designed binder, linker N-C via 3‑aminomethyl‑5‑aminobenzamide; also: four loops on But-Calix calix[4]arene scaffold) [GFB-108]
Reply: 10 µM

Query: Answer with the recorded IC50, Flk-1-Y-P for the binder listed here: GFGD (designed binder, linker N-C via 3‑aminomethyl‑5‑aminobenzamide; also: four loops on O4-Calix calix[4]arene scaffold) [GFB-101]
Reply: > 100 µM
